tested on: CAKI-1; assay: NCI tumour cell line growth inhibition, 48 h
Calls of active or inactive are those of the source. Cut-off read from the data, not from the text of the source: active = GI50 up to about 1.1 µM and inactive = higher.
Labels: label 1 = active, label 0 = inactive

>>> group_label("N#CC1=C(N2CCCC2)NC(=O)CC1=O")
"label 0"
>>> group_label("C[C@@]12CCCc3coc(c31)C(=O)c1cc3c(cc12)C(=O)C=CC3=O")
"label 0"
>>> group_label("CC1(C)C[C@H](O)[C@H](O)[C@]23C(=O)O[C@H](O)[C@H]2C(C=O)=CC[C@@H]13")
"label 0"
>>> group_label("O=C1CC[C@@]2(O)[C@H]3Cc4ccc(-c5cccc(O)c5)c5c4[C@@]2(CCN3CC2CC2)[C@H]1O5")
"label 0"
>>> group_label("O=S(=O)(O)c1ccc2c(/N=N/c3ccccc3Cl)c(O)ccc2c1")
"label 0"
>>> group_label("CC(=O)Nc1cc2c3c(c1)CCCN3CCC2")
"label 0"
>>> group_label("C(=C\\C(SCc1ccccc1)SCc1ccccc1)/c1ccccc1")
"label 0"
>>> group_label("O=c1[nH]c(=O)n(COCc2ccccc2)c2ccc([N+](=O)[O-])cc12")
"label 0"
>>> group_label("O=c1c2ccccc2n2n1CC(O)C2 (stereo not given)")
"label 0"
>>> group_label("C=C1C(=O)O[C@@H]2[C@H]1C[C@H](I)[C@@]1(C)CC[C@H](O1)[C@](C)(I)CCCC(C)[C@@H]2O (stereo not given in full)")
"label 0"
>>> group_label("CC12C(=O)OC(=O)C1(C)C1C=CC2O1 (stereo not given)")
"label 0"
>>> group_label("Cc1ccc(NC(=O)C(=O)Cc2cc[n+]([O-])cc2)cc1")
"label 0"
>>> group_label("Cc1ccc(N2C(=O)N(c3ccc(C)cc3)C3(SC=NN3C)C2=O)cc1 (stereo not given)")
"label 0"
>>> group_label("CN(C)Cc1cc(/N=N/c2ccccc2Cl)cc(CN(C)C)c1O")
"label 0"
>>> group_label("NCc1ccc(-c2ccc(-c3ccc(-c4ccc(CN)s4)s3)s2)s1")
"label 0"
>>> group_label("COc1ccc(NC(=O)c2cc(OC)c(OC)c(OC)c2)cc1")
"label 0"
>>> group_label("N=C(N)N/N=C/c1c(-c2ccc(Cl)c([N+](=O)[O-])c2)nc2sc(Cl)cn12")
"label 0"
>>> group_label("C/C=C/[C@H]1O[C@@](OC)([C@@H](C)[C@H](O)[C@H](C)[C@H]2OC(=O)/C(OC)=C/C(C)=C/[C@@H](C)[C@@H](O)[C@@H](C)[C@@H](O)[C@H](C)C/C(C)=C/C=C/[C@@H]2OC)CC(OC2CC(O)C(OC(N)=O)C(C)O2)[C@@H]1C (stereo not given in full)")
"label 1"
>>> group_label("CCc1cccc(CC)c1NC1=CC(=O)C(=O)c2ccccc21")
"label 0"
>>> group_label("C=CCN1CCC(OC(=O)C(O)(C#CC)C2CCCC2)CC1 (stereo not given)")
"label 0"

====

test system: CAKI-1; test: NCI tumour cell line growth inhibition, 48 h
Activity calls are given as the source filed them. Rule as the data show it: active = GI50 up to about 1.1 µM and inactive = higher.
Possible outcomes: active, inactive

>>> group_label("COc1ccc(C2C(Cl)C(=O)N2n2cnc3ccccc3c2=O)cc1OC (stereo unspecified)")
"inactive"
>>> group_label("CC1(C)CC[C@]2(C(=O)O)CC[C@]3(C)[C@H](C(=O)C=C4[C@@]5(C)C=C(C#N)C(=O)C(C)(C)[C@@H]5CC[C@]43C)[C@@H]2C1")
"active"
>>> group_label("CN(C)CC1CN=C(N)O1 (stereo unspecified)")
"inactive"
>>> group_label("S=P1(Oc2ccccc2)NNP2(=NP(N3CC3)(N3CC3)=NP(N3CC3)(N3CC3)=N2)NN1 (stereo unspecified)")
"inactive"
>>> group_label("CC1CNC(c2cccc(OCc3ccc(COc4cccc(C5=NC(C)CN5)c4)cc3)c2)=N1 (stereo unspecified)")
"inactive"
>>> group_label("CC(=O)OCCn1cnc2c(NCC=C(C)C)ncnc21")
"inactive"
>>> group_label("CC(C)(C)[Si](C)(C)O[C@@H](C(=O)OC1C=CCCC1)[C@@H](NC(=O)c1ccccc1)c1ccccc1 (stereo partly specified)")
"inactive"
>>> group_label("Cn1c(=O)nc2n(-c3cc(Cl)ccc3Cl)c3ccccc3nc-2c1=O")
"inactive"
>>> group_label("CCCSc1ccc2[nH]c(N3C(=O)/C(=C/c4ccc(SC)cc4)N=C3c3ccccc3)cc2c1")
"inactive"
>>> group_label("Cn1c2ccccc2c2c3c(c4c5ccccc5n(C)c4c21)C(=O)c1ccccc1C3=O")
"inactive"
>>> group_label("CC(=O)O[C@H]1C(=O)[C@@]2(C)[C@H]([C@H](OC(=O)c3ccccc3)[C@]3(O)C[C@H](OC(=O)[C@H](O)[C@@H](NC(=O)c4cccc(N=[N+]=[N-])c4)c4ccccc4)C(C)=C1C3(C)C)[C@]1(OC(C)=O)CO[C@@H]1C[C@@H]2O")
"active"
>>> group_label("COc1c(Br)cc2ccccc2c1-c1c(OC)c(Br)cc2ccccc12")
"inactive"
>>> group_label("COc1cc(OC)c(OC)cc1/C=C/c1cc[n+](C)c2ccccc12")
"inactive"
>>> group_label("CC1(C)OCC=CCO1")
"inactive"
>>> group_label("CCOc1ccc(C(c2c(O)c3ccccc3oc2=O)c2c(O)c3ccccc3oc2=O)cc1")
"inactive"
>>> group_label("CCOC(=O)NN(C(=O)OCC)c1c(C)cc(C)cc1C")
"inactive"
>>> group_label("CCOC(=O)N(C)CCC1CC=CC(=O)C1c1cccc(OC)c1OC (stereo unspecified)")
"inactive"
>>> group_label("C/C(=N\\n1c(Cc2ccccc2)n[nH]c1=O)c1ccc([N+](=O)[O-])cc1")
"inactive"
>>> group_label("CCC1C2C=CC(CC2)N1S(=O)(=O)c1ccc(C)cc1 (stereo unspecified)")
"inactive"
>>> group_label("CCOC(=O)/C1=C(\\C)N(c2ccc(C)cc2)C(=O)c2ccccc2C(=O)c2c(O)ccc(O)c21")
"inactive"
>>> group_label("CCOC(=O)c1cc(Cl)ccc1OC(N)=O")
"inactive"

// data source = ChEMBL document CHEMBL1201862
